Provenance of the data: patent US8852604B2

assay: physchem
No end group written: not given here.
QUANTITY KIND: solubility

Example entries begin here.
>>> reported("RVLQGLPREYVNARHSPESFDGDPASNTAPLQPYMPIWKFPDEEGAC [PEV607]")
"0.5 to 1.5 mg/mL"
>>> reported("PESFDGDPASNTAPLQPRVLQGLPREYVNARHSLPYMPIWKFPDEEGAC [PEV604]")
"0.5 to 1.5 mg/mL"

As a next step, examine the sequence that follows.
YMPIWKFPDEEGAC [PEV603, YMPIWKFPDEEGAC] yielded solubility of 2 to 3 mg/mL
